assayedTarget: Cytosol Progesterone Receptor of the Estrogen-primed Immature Rabbit Uterus (Oryctolagus cuniculus, UniProt P06186)
Construct: cytosol progesterone receptor of the estrogen-primed immature rabbit uterus; tissue Dutchland Laboratories, Inc., Denver, Pa (animals); host or cells: uterus cytosol of estradiol-treated immature female New Zealand White rabbits
Sequence (P06186 1-930): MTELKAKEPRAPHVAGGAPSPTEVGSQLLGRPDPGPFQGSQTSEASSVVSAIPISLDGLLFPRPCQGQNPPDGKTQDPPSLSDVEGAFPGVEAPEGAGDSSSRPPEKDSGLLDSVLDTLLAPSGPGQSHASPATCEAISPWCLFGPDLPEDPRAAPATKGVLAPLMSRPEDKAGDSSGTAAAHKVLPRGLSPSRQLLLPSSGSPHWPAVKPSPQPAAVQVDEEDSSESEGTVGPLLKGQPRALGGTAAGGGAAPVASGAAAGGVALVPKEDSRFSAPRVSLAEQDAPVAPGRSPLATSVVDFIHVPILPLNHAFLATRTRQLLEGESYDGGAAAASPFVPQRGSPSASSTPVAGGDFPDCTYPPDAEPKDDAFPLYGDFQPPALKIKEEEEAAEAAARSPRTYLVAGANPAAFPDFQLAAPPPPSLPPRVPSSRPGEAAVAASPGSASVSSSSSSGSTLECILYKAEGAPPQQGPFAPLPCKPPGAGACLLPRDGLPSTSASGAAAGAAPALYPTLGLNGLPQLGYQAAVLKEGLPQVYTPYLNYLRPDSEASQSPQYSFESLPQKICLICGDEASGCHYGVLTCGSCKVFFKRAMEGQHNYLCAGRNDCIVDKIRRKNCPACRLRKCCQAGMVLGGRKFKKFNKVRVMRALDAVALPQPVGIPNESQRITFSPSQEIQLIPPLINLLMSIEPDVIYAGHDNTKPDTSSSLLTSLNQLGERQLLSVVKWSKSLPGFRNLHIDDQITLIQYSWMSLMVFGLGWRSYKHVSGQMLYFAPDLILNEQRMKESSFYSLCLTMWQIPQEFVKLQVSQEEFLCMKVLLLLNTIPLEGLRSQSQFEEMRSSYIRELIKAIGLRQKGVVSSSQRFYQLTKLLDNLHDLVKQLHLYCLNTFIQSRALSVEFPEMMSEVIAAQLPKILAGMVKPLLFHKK
assayProcedure: Relative binding affinity for progesterone receptor (competition with 3H-progesterone)
Set-up: species or system rabbit (New Zealand White)
setupConditions: Assay 5; 16-18 hour incubation; progesterone = 100

{"molecule": "C#C[C@]1(C(C)=O)CC[C@H]2[C@@H]3CCC4=CC(=O)CC[C@@H]4[C@H]3CC[C@@]21C", "RBA [%]": 133}
{"molecule": "CC(=O)O[C@]1(C(C)=O)CC[C@H]2[C@@H]3C[C@H](C)C4=CC(=O)CC[C@]4(C)[C@H]3CC[C@@]21C [Medroxyprogesterone Acetate, 6α-Methyl-17α-acetoxyprogesterone, reference compound]", "RBA [%]": 133}
{"molecule": "C#C[C@@]1(C(C)=O)CC[C@H]2[C@@H]3C[C@H](C)C4=CC(=O)CC[C@]4(C)[C@H]3CC[C@@]21C", "RBA [%]": 6}
{"molecule": "C#C[C@]1(C(C)=O)CC[C@H]2[C@@H]3CC[C@H]4CC(=O)CC[C@@H]4[C@H]3CC[C@@]21C", "RBA [%]": 66}
{"molecule": "C#C[C@]1(C(C)=O)CC[C@H]2[C@@H]3C[C@H](C)C4=CC(=O)CC[C@]4(C)[C@H]3CC[C@@]21C", "RBA [%]": 67}
{"molecule": "CC(=O)O[C@]1(C(C)=O)CC[C@H]2[C@@H]3CCC4=CC(=O)CC[C@]4(C)[C@H]3CC[C@@]21C [17α-Acetoxyprogesterone (Prodox ®), 17α-Acetoxyprogesterone, reference compound]", "RBA [%]": 122}

---

# reported RBA; entries follow
assayedTarget: Cytosol Progesterone Receptor of the Estrogen-primed Immature Rabbit Uterus (Oryctolagus cuniculus)
Construct: cytosol progesterone receptor of the estrogen-primed immature rabbit uterus; tissue Dutchland Laboratories, Inc., Denver, Pa (animals); host or cells: uterus cytosol of estradiol-treated immature female New Zealand White rabbits
assayProcedure: Relative binding affinity for progesterone receptor (competition with 3H-progesterone)
Design: species or system rabbit (New Zealand White)
setupConditions: Assay 6; 16-18 hour incubation; progesterone = 100
Description: RBA values recorded at 0° C. after short incubation times (e.g., 2 hr) mainly reflect differences in the association rate constants of the competing ligands, whereas those measured after long incubation times (e.g., 16 to 24 hr) and/or higher temperatures predominantly are influenced by differences in the dissociation rate constants of the competing ligands. RBA's determined after short incubation times primarily reflect the association of the competitor compared to the natural hormone. […]
measuredProperty: RBA (%)

{"compound": "CC(=O)O[C@]1(C(C)=O)CC[C@H]2[C@@H]3C[C@H](C)C4=CC(=O)CC[C@]4(C)[C@H]3CC[C@@]21C [Medroxyprogesterone Acetate, 6α-Methyl-17α-acetoxyprogesterone, reference compound]", "measuredProperty": "RBA", "observed": 143}
{"compound": "C#C[C@]1(C(C)=O)CC[C@H]2[C@@H]3C[C@H](C)C4=CC(=O)CC[C@]4(C)[C@H]3CC[C@@]21C", "measuredProperty": "RBA", "observed": 91}
{"compound": "C#C[C@]1(C(C)=O)CC[C@H]2[C@@H]3C=C(C)C4=CC(=O)CC[C@]4(C)[C@H]3CC[C@@]21C", "measuredProperty": "RBA", "observed": 104}
{"compound": "CC(=O)O[C@]1(C(C)=O)CC[C@H]2[C@@H]3CCC4=CC(=O)CC[C@]4(C)[C@H]3CC[C@@]21C [17α-Acetoxyprogesterone (Prodox ®), 17α-Acetoxyprogesterone, reference compound]", "measuredProperty": "RBA", "observed": 114}

---

System: uterine endometrium of estrone-primed immature rabbits
assayProcedure: Clauberg assay (progestational activity, McPhail)
Type: in vivo, rabbit (New Zealand White)
setupConditions: oral, 100 μg/rabbit daily; 0 none, 4 maximal
# reported McPhail Index (0-4) (X ± S.D.); entries follow

{"molecule": "C#C[C@]1(C(C)=O)CC[C@H]2[C@@H]3C[C@H](C)C4=CC(=O)CC[C@]4(C)[C@H]3CC[C@@]21C", "McPhail Index (0-4) (X ± S.D.)": 4.00}
{"molecule": "C#C[C@]1(C(C)=O)CC[C@H]2[C@@H]3CC[C@H]4CC(=O)CC[C@]4(C)[C@H]3CC[C@@]21C [5α-Dihydro-17α-ethynylprogesterone, 17α-Ethynyl-5α-pregnane-3,20-dione]", "McPhail Index (0-4) (X ± S.D.)": 0}
{"molecule": "CC(=O)O[C@]1(C(C)=O)CC[C@H]2[C@@H]3C[C@H](C)C4=CC(=O)CC[C@]4(C)[C@H]3CC[C@@]21C [Medroxyprogesterone Acetate, 6α-Methyl-17α-acetoxyprogesterone, reference compound]", "McPhail Index (0-4) (X ± S.D.)": 3.90}
{"molecule": "C#C[C@]1(O)CC[C@H]2[C@@H]3CCC4=CC(=O)CC[C@@H]4[C@H]3CC[C@@]21CC [Levonorgestrel, reference compound]", "McPhail Index (0-4) (X ± S.D.)": 3.90}
{"molecule": "C#C[C@]1(C(C)=O)CC[C@H]2[C@@H]3CCC4=CC(=O)CC[C@@H]4[C@H]3CC[C@@]21C", "McPhail Index (0-4) (X ± S.D.)": 1.17}
